Target: GSK3b (GST-full length GSK3b) (Homo sapiens (Human))
Assay: GSK3b TR-FRET kinase assay
Format: biochemical
Conditions: 1 nM GSK3b, 2 μM ATP, 30 minute preincubation, Table 16; read-out: GSK3-B TR-FRET BIOCHEMICAL (TR-FRET)
Method: TR-FRET Assay: The assay was performed in a white, 384 well, low volume, flat bottom plate (Grenier). After a 30 minute preincubation in assay buffer with the indicated concentration of compound, the kinase activity was initiated by the addition of the substrates. […] After 60 min at room temperature the plate was read on Envision plate reader using Ex: 340 nm, Em: 615 nm and […]. The normalized 665/615 Signal ratio versus log compound concentration was analyzed by XLFIT to yield IC50 values.
This section presents molecules with their documented IC50 values.

Answered examples (3):
CC(=O)N1CCC2(CC1)C1=C(CC(C)(C)CC1=O)Nc1n[nH]cc12 [Compound 826649]	1 to 5 µM
CC1(C)CC(=O)C2=C(C1)Nc1n[nH]cc1C21CCS(=O)(=O)CC1 [Compound 896013]	0.1 to 1 µM
CC1(C)CC(=O)C2=C(C1)Nc1n[nH]cc1C21CCN(S(=O)(=O)c2ccccc2Cl)CC1 [Compound 945655]	≤ 0.1 µM

Here is the next item to consider.
Consider the molecule shown here: CC1(C)CC2=C(C(=O)C1F)[C@]1(CC[C@@H](C(F)(F)F)CC1)c1c[nH]nc1N2 (stereo partly shown) [Compound 917134] What is its recorded IC50? 0.1 to 1 µM

====

Molecular target: GSK3b (GST-full length GSK3b) (Homo sapiens (Human))
Test: GSK3b TR-FRET kinase assay
Type: biochemical
Settings: 1 nM GSK3b, 2 μM ATP, 30 minute preincubation, Table 16; read-out: GSK3-B TR-FRET BIOCHEMICAL (TR-FRET)
This section presents molecules with their documented IC50 values.

COc1ccccc1S(=O)(=O)N1CCC2(CC1)C1=C(CC(C)(C)CC1=O)Nc1n[nH]cc12 [Compound 893310]	≤ 100 nM
CCC1(c2cccc(-c3c(C)cncc3C)c2)C2=C(CC(C)(C)CC2=O)Nc2n[nH]cc21 (stereo not shown) [Compound 945703]	≤ 100 nM
C[C@H]1C[C@]2(CCN1S(=O)(=O)c1ccn(C)n1)C1=C(CC(C)(C)CC1=O)Nc1n[nH]cc12 [Compound 926832]	100 to 1000 nM
CC[C@@]1(c2ccccc2)C2=C(Nc3n[nH]cc31)[C@H](F)C(C)(C)CC2=O [Compound 957197]	1000 to 5000 nM

Consider the molecule shown here: CC1(C)CC(=O)C2=C(C1)Nc1n[nH]cc1[C@@]21CCN(S(=O)(=O)c2cccc(F)c2)C1 [Compound 951862] What is its recorded IC50? ≤ 100 nM

Consider the molecule shown here: COc1ccc(S(=O)(=O)N2CCC3(CC2)C2=C(CC(C)(C)CC2=O)Nc2n[nH]cc23)cc1C [Compound 945680] What is its recorded IC50? ≤ 100 nM

Consider the molecule shown here: Cn1nccc1-c1cccc2c1CCC[C@@]21C2=C(CC(C)(C)CC2=O)Nc2n[nH]cc21 [Compound 945552] What is its recorded IC50? > 5000 nM

Consider the molecule shown here: Cn1ccc(S(=O)(=O)N2CCC3(CC2)C2=C(Nc4n[nH]cc43)[C@H](F)C(C)(C)CC2=O)n1 [Compound 951709] What is its recorded IC50? 100 to 1000 nM

Consider the molecule shown here: CCOc1cccc(S(=O)(=O)N2CCC3(CC2)C2=C(CC(C)(C)CC2=O)Nc2n[nH]cc23)c1 [Compound 947253] What is its recorded IC50? ≤ 100 nM

Consider the molecule shown here: CC1(C)CC(=O)C2=C(C1)Nc1n[nH]cc1C21CN(S(=O)(=O)CC2CC2)C1 [Compound 929440] What is its recorded IC50? ≤ 100 nM

Consider the molecule shown here: CC[C@@]1(c2cccc(-c3cc(OC)ncc3F)c2)C2=C(CC(C)(C)CC2=O)Nc2n[nH]cc21 [Compound 944035] What is its recorded IC50? > 5000 nM

Consider the molecule shown here: CC1(C)CC(=O)C2=C(C1)Nc1n[nH]cc1C21CCN(S(=O)(=O)c2cccc(C(F)(F)F)c2)CC1 [Compound 947244] What is its recorded IC50? ≤ 100 nM

====

Target: GSK3α (GST-full length GSK3α) (Homo sapiens (Human), UniProt P49840)
Sequence (P49840 whole entry): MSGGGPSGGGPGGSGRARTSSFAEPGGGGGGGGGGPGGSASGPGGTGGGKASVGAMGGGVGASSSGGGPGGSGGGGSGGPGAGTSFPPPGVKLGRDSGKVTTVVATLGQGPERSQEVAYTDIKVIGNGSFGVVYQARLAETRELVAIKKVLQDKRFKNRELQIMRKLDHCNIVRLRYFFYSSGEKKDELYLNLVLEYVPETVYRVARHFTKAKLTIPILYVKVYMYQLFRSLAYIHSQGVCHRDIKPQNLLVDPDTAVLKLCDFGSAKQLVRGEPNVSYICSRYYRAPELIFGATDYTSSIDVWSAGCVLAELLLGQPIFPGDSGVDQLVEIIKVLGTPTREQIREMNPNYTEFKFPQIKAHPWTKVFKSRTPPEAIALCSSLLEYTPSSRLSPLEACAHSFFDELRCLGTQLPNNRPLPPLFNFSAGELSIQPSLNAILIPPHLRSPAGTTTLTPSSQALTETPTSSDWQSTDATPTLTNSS
Experiment: GSK3α TR-FRET kinase assay
Format: biochemical
Settings: 1 nM GSK3α, 4 μM ATP, 30 minute preincubation; read-out: GSK3-A TR-FRET BIOCHEMICAL (TR-FRET); IC50
pIC50: −log10 of the molar value.
This section presents compounds with their documented pIC50 values.

Answered examples (5):
CCC1(c2cccc(C(F)(F)F)c2)C2=C(CCN(c3ccccc3)C2=O)Nc2n[nH]cc21 (stereo not drawn)	≥ 7.00
CC1(C)CC(=O)C2=C(C1)Nc1n[nH]cc1C21CC2(COC2)C1	< 5.30
CC[C@@]1(c2cccc(-c3cnn(C)c3C)c2)C2=C(CC(C)(C)NC2=O)Nc2n[nH]cc21	5.30 to 6.00
CC1(C)CC(=O)C2=C(C1)Nc1n[nH]cc1C21COC2(CN(C(=O)C3(C)CCCC3)C2)C1 (stereo not drawn)	≥ 7.00
CC[C@@]1(c2cccc(C(F)(F)F)c2)C2=C(C[C@H](C)NC2=O)Nc2n[nH]cc21	6.00 to 7.00

Here is the next item to consider.
Consider the compound shown here: CC(C)(C)CC(=O)N1CC2(C1)CC1(CO2)C2=C(CC(C)(C)CC2=O)Nc2n[nH]cc21 (stereo not drawn) What is its recorded pIC50? 6.00 to 7.00

====

Target: GSK3b (GST-full length GSK3b) (Homo sapiens (Human), UniProt P49841)
Sequence (P49841 whole entry): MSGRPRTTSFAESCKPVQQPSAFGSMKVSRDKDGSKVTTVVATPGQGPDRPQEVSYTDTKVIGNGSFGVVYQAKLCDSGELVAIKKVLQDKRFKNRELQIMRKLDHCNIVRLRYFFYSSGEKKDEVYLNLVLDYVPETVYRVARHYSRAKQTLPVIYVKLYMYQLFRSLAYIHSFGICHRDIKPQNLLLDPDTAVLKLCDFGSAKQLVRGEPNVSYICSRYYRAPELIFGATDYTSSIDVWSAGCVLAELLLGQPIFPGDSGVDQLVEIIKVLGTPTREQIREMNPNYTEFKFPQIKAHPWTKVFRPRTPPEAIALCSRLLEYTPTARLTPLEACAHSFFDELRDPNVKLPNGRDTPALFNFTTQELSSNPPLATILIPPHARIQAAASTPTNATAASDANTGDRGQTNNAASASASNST
Assay: GSK3b TR-FRET kinase assay
Type: biochemical
Settings: 1 nM GSK3b, 2 μM ATP, 30 minute preincubation, Table 16; read-out: GSK3-B TR-FRET BIOCHEMICAL (TR-FRET)
measured metric: IC50

Consider the compound shown here: CCC1(c2cccc(C(F)(F)C(F)(F)F)c2)C2=C(CC(C)(C)CC2=O)Nc2n[nH]cc21 (centres unmarked) [Compound 949268] What is its recorded IC50? > 5000 nM

Consider the compound shown here: CCC1(c2cccc(C(F)(F)F)c2)C2=C(Nc3n[nH]cc31)C(C)N(C)C2=O (centres unmarked) [Compound 913454] What is its recorded IC50? 100 to 1000 nM

====

This section presents molecules with their documented IC50 values.
Molecular target: UniProt:P49841
Experiment: GSK3b TR-FRET kinase assay
Assay type: biochemical
Details: 1 nM GSK3b, 2 μM ATP, 30 minute preincubation; geometric mean; read-out: GSK3-B TR-FRET BIOCHEMICAL (TR-FRET); GMean; IC50

Answered examples (2):
CCC1(c2cccc(C(F)(F)F)c2)C2=C(Nc3n[nH]cc31)C(F)C(C)(C)CC2=O (single isomer, unassigned) [Compound 837683]	0.1 to 1 µM
CCC1(c2cccc(-c3ccncc3)c2)C2=C(CC(C)(C)CC2=O)Nc2n[nH]cc21 (stereo not shown) [Compound 801413]	≤ 0.1 µM

Field: IC50 (UniProt:P49841). Entry: CCC1(c2cccc(S(=O)(=O)C(C)C)c2)C2=C(CC(C)(C)NC2=O)Nc2n[nH]c(C)c21 (stereo not shown) ≤ 0.1 µM

Field: IC50 (UniProt:P49841). Entry: CCC1(c2cccc(-c3ccnc(C)c3)c2)C2=C(CC3(CCCOC3)NC2=O)Nc2n[nH]cc21 (stereo not shown) [Compound 948152] 0.1 to 1 µM

Field: IC50 (UniProt:P49841). Entry: CC1(C)CC(=O)C2=C(C1)Nc1n[nH]c(CCC(F)(F)F)c1C21CCc2c(F)cccc21 (stereo not shown) 1 to 5 µM

Field: IC50 (UniProt:P49841). Entry: CCC1(c2cccc(-c3ccnc(C)c3)c2)C2=C(CC(C)(C)NC2=O)Nc2n[nH]c(F)c21 (stereo not shown) [Compound 949001] 0.1 to 1 µM

Field: IC50 (UniProt:P49841). Entry: CC[C@]1(c2ccccc2)C2=C(C[C@]3(CCOC3)CC2=O)Nc2n[nH]cc21 > 5 µM

Field: IC50 (UniProt:P49841). Entry: CC[C@]1(c2cccc(-c3cnn(C)c3C(F)(F)F)c2)C2=C(CC(C)(C)NC2=O)Nc2n[nH]cc21 0.1 to 1 µM

Field: IC50 (UniProt:P49841). Entry: CC[C@@]1(c2cccc(OC)c2)C2=C(CC(C)(C)CC2=O)Nc2n[nH]cc21 > 5 µM

Field: IC50 (UniProt:P49841). Entry: CCC1(c2cccc(N3CCCC3=O)c2)C2=C(CC(C)(C)CC2=O)Nc2n[nH]cc21 (stereo not shown) 0.1 to 1 µM

Field: IC50 (UniProt:P49841). Entry: CCC1(c2cccc(-c3ccncc3C)c2)C2=C(CC(C)(C)NC2=O)Nc2n[nH]cc21 (stereo not shown) 1 to 5 µM

Field: IC50 (UniProt:P49841). Entry: CC[C@]1(c2ccccc2)C2=C(C[C@]3(CCCOC3)CC2=O)Nc2n[nH]cc21 > 5 µM

Field: IC50 (UniProt:P49841). Entry: CC1(C)CC(=O)C2=C(C1)Nc1n[nH]cc1[C@]21CCc2c(F)cccc21 0.1 to 1 µM

Field: IC50 (UniProt:P49841). Entry: CCC1(c2cccc(C(F)(F)F)c2)C2=C(Nc3n[nH]cc31)C(F)C(C)(C)CC2=O (single isomer, unassigned) [Compound 837646] ≤ 0.1 µM

Field: IC50 (UniProt:P49841). Entry: Cc1cccc2c1CCC21C2=C(CC(C)(C)CC2=O)Nc2n[nH]cc21 (stereo not shown) 0.1 to 1 µM

Field: IC50 (UniProt:P49841). Entry: CCC1(c2cccc(-c3c(C)nn(C)c3C)c2)C2=C(CC(C)(C)NC2=O)Nc2n[nH]c(C(F)(F)F)c21 (stereo not shown) ≤ 0.1 µM

Field: IC50 (UniProt:P49841). Entry: CCC1(c2cccc(-c3ccncc3Cl)c2)C2=C(CC(C)(C)NC2=O)Nc2n[nH]cc21 (stereo not shown) [Compound 948142] ≤ 0.1 µM

Field: IC50 (UniProt:P49841). Entry: CCC1(c2cccc(Br)c2)C2=C(CC(C)(C)CC2=O)Nc2n[nH]cc21 (stereo not shown) [Compound 789312] 0.1 to 1 µM

Field: IC50 (UniProt:P49841). Entry: CC[C@]1(c2cccc(-c3ccnc4ccc(Cl)cc34)c2)C2=C(CC(C)(C)N(C)C2=O)Nc2n[nH]cc21 ≤ 0.1 µM
